target: Mitogen-activated protein kinase 3 (Homo sapiens); conditions: at 0.1 µM;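 further: each value is a mean inhibition figure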
Entries and their inhibition
The answer consists of two parts: a number and, after it, its unit.

item_smiles=COc1cccc(-n2ncc3c(N/N=C/c4ccc(F)cc4)ncnc32)c1 reading=2.41%
item_smiles=CNC(=O)c1cccc(C#Cc2cncnc2Nc2ccc(OCc3cccc(F)c3)c(Cl)c2)c1 reading=2.46%
item_smiles=COC(=O)Nc1nc2ccc(S(=O)(=O)c3ccc(NC(=O)Nc4cc(C(F)(F)F)ccc4F)cc3)cc2[nH]1 reading=3%

Here is the next item to consider.
So, `CCOc1ccc2c(-c3ccnc(Nc4cccc(C(F)(F)F)c4)n3)cnn2n1` ? Its inhibition was 2.89%

====

target: Protein kinase C eta type (Homo sapiens) (UniProt P24723); conditions: at 0.1 µM;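 further: values are the mean percent inhibition of PKC-eta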
Sequence (P24723 whole entry): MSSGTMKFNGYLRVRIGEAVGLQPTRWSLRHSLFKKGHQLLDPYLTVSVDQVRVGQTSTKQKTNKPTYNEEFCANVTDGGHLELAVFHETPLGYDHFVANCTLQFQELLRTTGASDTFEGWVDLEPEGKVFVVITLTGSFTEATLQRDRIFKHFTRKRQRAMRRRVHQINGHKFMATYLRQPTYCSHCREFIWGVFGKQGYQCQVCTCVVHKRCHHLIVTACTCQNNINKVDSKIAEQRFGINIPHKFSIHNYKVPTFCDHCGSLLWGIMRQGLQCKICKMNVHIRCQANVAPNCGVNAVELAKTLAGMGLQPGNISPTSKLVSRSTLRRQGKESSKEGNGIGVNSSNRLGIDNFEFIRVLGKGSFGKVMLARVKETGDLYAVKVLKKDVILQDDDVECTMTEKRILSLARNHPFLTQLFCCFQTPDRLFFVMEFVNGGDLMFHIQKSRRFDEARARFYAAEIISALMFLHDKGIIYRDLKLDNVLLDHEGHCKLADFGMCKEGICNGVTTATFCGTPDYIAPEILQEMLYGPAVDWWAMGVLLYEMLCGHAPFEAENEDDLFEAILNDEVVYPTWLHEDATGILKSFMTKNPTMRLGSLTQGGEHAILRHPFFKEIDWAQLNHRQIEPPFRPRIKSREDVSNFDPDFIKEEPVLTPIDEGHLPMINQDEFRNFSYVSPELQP
Each entry below lists one item and its recorded inhibition value.
Write the number in % without appending the unit.

Worked examples, 2 compounds total:
item_smiles=Cc1ccc(O)cc1Nc1ccnc2cc(-c3ccccn3)ccc12 units_of_measure=% reading=4.81
item_smiles=NC(=O)c1sc(-n2cnc3ccc(C(F)(F)F)cc32)cc1OCc1ccccc1Br units_of_measure=% reading=-0.93

Lab note: next compound to report on.
inhibition reported for this compound `CN1CCC(n2cnc(-c3ccc(F)cc3)c2-c2ccnc(N)n2)CC1` : 3.71

====

target: Serine/threonine-protein kinase PLK1 (Homo sapiens); settings: at 0.1 µM;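 further: reported values are mean PLK1 inhibition, measured as part of the GSK PKIS profiling set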
Readout label: inhibition (%)
Write the number in % without appending the unit.

Example cases with answers are listed next.
item_smiles=CN(C)CCOc1ccc(-c2nc(-c3ccncc3)c(-c3ccc4c(c3)CC/C4=N\O)[nH]2)cc1 assayed_system="Serine/threonine-protein kinase PLK1 (Homo sapiens)" reading=2.08
item_smiles=CNC(=O)c1cncc(/C=C/c2ccccc2Cl)c1 assayed_system="Serine/threonine-protein kinase PLK1 (Homo sapiens)" reading=-0.94

Could you now consider this next compound?
# inhibition (compound: `CC(=O)Nc1cccc(C#Cc2cncnc2Nc2ccc(OCc3cccc(F)c3)c(Cl)c2)c1` ) is 2.3

====

Catalogue of molecules with associated inhibition
target: Tyrosine-protein kinase receptor UFO (Homo sapiens); settings: at 1 µM
Description: GSK_PKIS: AXL mean inhibition at 1 uM [Nanosyn]
Quick reminder: number only, in %, skip the unit.

In the examples that follow, each entry is paired with its recorded inhibition.
item_smiles=O=C(O[C@H]1CN[C@H](C#Cc2cc3ncnc(Nc4ccc(Cc5ccccc5)cc4)c3s2)C1)N1CCOCC1 reading=-7.04
item_smiles=COc1ccc(-c2cc3c(N)ncnc3o2)cc1 reading=2.96
item_smiles=COc1cccc(-n2ncc3c(N/N=C/c4ccc(F)cc4)ncnc32)c1 reading=-3.79

The value of inhibition measured for the molecule `CN(C)CCOc1ccc(-c2nc(-c3ccncc3)c(-c3ccc4c(c3)CC/C4=N\O)[nH]2)cc1` turned out to be -4.92

Lab book: inhibition of `CN1CCC(n2cnc(-c3ccc(F)cc3)c2-c2ccnc(Nc3ccccc3)n2)CC1` noted as -1.45

Summary for this molecule, `CCCN(CCS(C)(=O)=O)Cc1ccc(-c2ccc3ncnc(Nc4ccc(OCc5cccc(F)c5)c(Cl)c4)c3c2)o1` : inhibition is -0.23

Looking up `CCn1c(-c2nonc2N)nc2cnc(Oc3cccc(NC(=O)c4ccc(N(C)C)cc4)c3)cc21` , I found its inhibition recorded as -3.3

Documented inhibition of `CNC(=O)c1cncc(/C=C/c2ccccc2Cl)c1` : -0.52

For record `CCn1cc(-c2ccnc3[nH]ccc23)c(-c2cccc(NC(=O)Nc3ccc(OCc4ccccc4)cc3)c2)n1` the listed inhibition is 0.9

Reported inhibition for `CCN1CCC(CC(=O)Nc2n[nH]c3nnc(-c4cccc(F)c4F)cc23)CC1` was 0.83

Note to self: inhibition recorded for `CCc1nn2ncccc2c1-c1ccnc(NC2CC2)n1` was -2.77

For reference, reported inhibition for `COC(=O)c1sc(-n2cnc3cc(OC)c(OC)cc32)cc1OCc1ccccc1C(F)(F)F` stands at -2.03

Query `NS(=O)(=O)c1ccc(N/N=C2\C(=O)Nc3ccc4ncccc4c32)cc1` yields inhibition of 36.8
